- method_summary: chemical genetic growth profiling, strain panel (AID 1159580);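 further: tested at 20 µM; growth read once vehicle control cultures reached saturation at 30 °C; 1 = growth at the plate median or of vehicle wells; lower values mean less growth of the strain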
- test_parameters: S. cerevisiae deletion strains, growth OD, locus YNL322C, strain KRE1, active compounds read low
Out of some 5,500 compounds screened, about 2,000 (36%) were called active. Another 18% or so got no clear call; they are omitted. The list shows a part of the results.
quantity: normalized growth

| molecule | quantity | observed_value |
| --- | --- | --- |
| O=C(O)c1cccnc1C(=O)O | normalized growth | 1.01 |
| COc1cc(C2Nc3cccc4cccc(c34)N2)cc(OC)c1OC | normalized growth | 1 |
| O=C(Cc1ccccc1)NC1CCN(S(=O)(=O)c2ccc(Cl)cc2)CC1 | normalized growth | 0.998 |
| O=C(NNC(=S)Nc1cccc(Cl)c1)c1cccnc1 | normalized growth | 0.994 |
| O=C1CSC(c2cccnc2)N1c1ccc(Cl)cc1 (stereo not drawn) | normalized growth | 0.995 |
| C[N+]12CCC(CC1)C(OC(=O)C(O)(c1ccccc1)c1ccccc1)C2 (stereo not drawn) | normalized growth | 0.998 |
| O=C(O)c1ccccc1Sc1c(C(=O)O)cc([N+](=O)[O-])cc1[N+](=O)[O-] | normalized growth | 1.02 |
| Oc1cccc2cccnc12 | normalized growth | 0.0518 |
| CCCN1CCCC2Cc3[nH]ncc3CC21 (stereo not drawn) | normalized growth | 1.02 |
| CC(=O)O[C@@H]1C2CC[C@@H]3C1(C[C@@H](O)[C@@]1(O)[C@@H](C[C@H](O)C1(C)C)[C@]3(C)O)C[C@@]2(C)O (stereo partly drawn) | normalized growth | 0.992 |
| CCOC(=O)c1cnc(SCC(=O)c2ccc(Cl)cc2Cl)[nH]1 | normalized growth | 1.01 |
| NC(N)=NCc1cccc(I)c1 | normalized growth | 0.982 |
| CC(C)N1C(=O)c2ccccc2NS1(=O)=O | normalized growth | 1 |
| COc1ccc(/C=C2/C(=O)N(c3cccc(Cl)c3)N=C2C)cc1 | normalized growth | 0.973 |
| CC(C)[C@@H]1CC[C@@H](C)C[C@H]1OC(=O)c1ccccc1 | normalized growth | 1.01 |
| Cc1ccc(S(=O)(=O)N2CCCCCC2)cc1 | normalized growth | 0.972 |
| CCOC(=O)c1c[nH]c2c(F)cccc2c1=O | normalized growth | 0.996 |
| C=C(C)C1Cc2c(ccc3c(=O)c4c(oc23)COc2cc(OC)c(OC)cc2-4)O1 (stereo not drawn) | normalized growth | 0.999 |
| COc1cc2cccc(OC)c(=O)c2c(OC)c1OC | normalized growth | 1.02 |
| Cc1cc(NC(=O)Nc2cccc(C(F)(F)F)c2)n(C)n1 | normalized growth | 1.01 |
| Cn1c(=O)c2c(nc(/C=C/c3cccc(Cl)c3)n2C)n(C)c1=O | normalized growth | 1.02 |
| C/C(=C\CO)CC[C@H](C)CCC[C@H](C)CCCC(C)C | normalized growth | 1.07 |
| C=C(C)C1Cc2c(ccc(C(=O)O)c2O)O1 (stereo not drawn) | normalized growth | 0.993 |
| Cc1noc(C)c1C(=O)N1CCOCC1 | normalized growth | 0.995 |
| Cc1cc(O)c2c(c1)C(=O)c1cc(O)cc(O)c1C2=O | normalized growth | 0.832 |
| CNC(C)(C)Cc1ccccc1 | normalized growth | 1 |
| CC(=O)OCC1=C(C(=O)O)N2C(=O)[C@@H](NC(=O)CSc3ccncc3)[C@H]2SC1 | normalized growth | 0.997 |
| CC(C)=CCC/C(C)=C/CO | normalized growth | 1.01 |
| COc1ccccc1N1CC(C)(C)C(=O)N(C(=O)c2c(F)cccc2Cl)C1=S | normalized growth | 1.01 |
| CC(=O)c1ccc(Sc2ccccn2)c([N+](=O)[O-])c1 | normalized growth | 0.966 |
| COc1ccc(/C=C/c2cc(O)cc(O[C@@H]3O[C@H](CO)[C@@H](O)[C@H](O)[C@H]3O)c2)cc1 | normalized growth | 0.984 |
| N=C(N)SCc1c(F)cccc1Cl | normalized growth | 0.982 |
| O=C1CSC(c2cccnc2)N1c1ccc(C2CCCCC2)cc1 (stereo not drawn) | normalized growth | 1 |
| O=C(c1ccccc1)c1ccc2n1CCC2C(=O)O (stereo not drawn) | normalized growth | 1.01 |
| O=C1C=C(O)c2ccccc2C1=O | normalized growth | 0.971 |
| COc1cc(O)c2c(c1)C(=O)c1cc(C)cc(O)c1C2=O | normalized growth | 1.01 |
| CC(=O)Nc1ccc(S(=O)(=O)NCCCN2CCN(Cc3ccccc3)CC2)cc1Cl | normalized growth | 0.999 |
| Cc1ccc(O)c(C(CCN(C(C)C)C(C)C)c2ccccc2)c1 (stereo not drawn) | normalized growth | 1 |
| CC(=O)OC1CCC23CC1(C)CCC2C(C)(C)CC3OC(C)=O (stereo not drawn) | normalized growth | 1 |
| COP(=O)(NC(C)=O)SC (stereo not drawn) | normalized growth | 1.01 |
| CN1C(=O)CC[C@H]1c1cccnc1 | normalized growth | 0.993 |
| O=C(NNC(=S)NC1CC2C=CC1C2)c1cccnc1 (stereo not drawn) | normalized growth | 0.993 |
| O=C(/C=C/c1ccccc1)c1c(O)cc(O)cc1O | normalized growth | 1.01 |
